tested on: PC-3 prostate; experiment: NCI tumour cell line growth inhibition, 48 h
observedProperty: TGI (µM)
Respond numerically; units are µM and should not be typed.

As a guide, the following entries are already answered.
1) COc1ccc(-c2n/c(=C\c3c(O)[nH]c4ccccc34)cc3c2=Nc2ccccc2-3)cc1 ... 9.31
2) C=C(C)[C@@H]1CC[C@]2(CO)CC[C@]3(C)[C@H](CC[C@@H]4[C@@]5(C)CC[C@H](NCO)C(C)(C)[C@@H]5CC[C@]43C)[C@@H]12 ... 1.85

Consider the additional compound presented here.
Exam item: Would you mind telling me what TGI value was observed for Cc1c(Cl)c(C)c(Cc2c(C)c(Cl)c(C)c(Cl)c2O)c(O)c1Cl ?
Marked response: 11.8

====

test system: SW-620 colon; assay: NCI tumour cell line growth inhibition, 48 h; in the data active means GI50 below about 0.43 µM; inactive means the rest
Respond only with the outcome that fits, drawn from T (active), F (inactive)

1) Oc1ccc(Cl)cc1/C=N\NC(=S)N/N=C/c1cc(Cl)ccc1O ... F
2) C=C(C)[C@@H]1CC[C@]2(CO)CC[C@]3(C)[C@H](CC[C@@H]4[C@@]5(C)CC[C@H](NCO)C(C)(C)[C@@H]5CC[C@]43C)[C@@H]12 ... F
3) CC(=O)[C-](C(C)=O)c1ccccc1.CC(=O)[C-](C(C)=O)c1ccccc1.CC(=O)[C-](C(C)=O)c1ccccc1.[Cl-].[Zr+4] ... F
4) COc1ccc2c(c1)/C(=N/OC(C)=O)c1c-2cnc2ccccc12 ... F

Exam item: Check the results log: what was the call for O=C(/C=C/c1ccc([N+](=O)[O-])cc1)c1cccc(Nc2nc(Nc3ccccc3)nc(Nc3ccccc3)n2)c1 ?
Marked response: F

Exam item: Check the results log: what was the call for COc1cccc2c1cc1c3c(cc4c(c32)OCO4)C(=O)N1 ?
Marked response: F

Exam item: Check the results log: what was the call for O=C(/C=C/c1ccco1)c1ccc(Nc2nc(Nc3ccc(F)cc3)nc(Nc3ccc(F)cc3)n2)cc1 ?
Marked response: F

Exam item: Check the results log: what was the call for Cc1ccc(-c2n[nH]c(=O)c3noc(-c4ccc(C)cc4)c23)cc1 ?
Marked response: F

Exam item: Check the results log: what was the call for COc1ccc(C(=O)c2cc3c(N)c(C(=O)Nc4cccc(OC)c4)sc3nc2C)cc1 ?
Marked response: F

Exam item: Check the results log: what was the call for Cc1c(Cl)c(C)c(Cc2c(C)c(Cl)c(C)c(Cl)c2O)c(O)c1Cl ?
Marked response: F

Exam item: Check the results log: what was the call for C/C(=N/O)c1ccc(Nc2cc(-n3ccnc3)c3ccccc3n2)cc1 ?
Marked response: F

Exam item: Check the results log: what was the call for CN(C(=O)CNC(=O)/C=C/c1cccc(Cl)c1)C1CCS(=O)(=O)CC1 ?
Marked response: F

Exam item: Check the results log: what was the call for C=C(C)[C@@H]1CC[C@]2(C(=O)NC(C)=O)CC[C@]3(C)[C@H](CC[C@@H]4[C@@]5(C)CCCNC(C)(C)[C@@H]5CC[C@]43C)[C@@H]12 ?
Marked response: F

Exam item: Check the results log: what was the call for CCN(CC)Cc1cc(Nc2c3ccccc3nc3cc(Cl)ccc23)ccc1O ?
Marked response: F

Exam item: Check the results log: what was the call for Cc1cc2nc3c4ccc(Br)cc4n(CCN(C)C)c3nc2cc1C ?
Marked response: F

Exam item: Check the results log: what was the call for O=Cc1ccc(N2CCN(c3ccc(C=O)cc3)CC2)cc1 ?
Marked response: F

Exam item: Check the results log: what was the call for CCCCCCCCCCSC(=N)N ?
Marked response: F

Exam item: Check the results log: what was the call for COc1cc(Cn2c(-c3ccccc3)cc3c2-c2oncc2CC3)cc(OC)c1 ?
Marked response: T

Exam item: Check the results log: what was the call for O=C(CCCCCCCCC(=O)N/N=C\c1cc(Cl)ccc1O)N/N=C\c1cc(Cl)ccc1O ?
Marked response: F

====

tested on: K-562 leukemia; assay: NCI tumour cell line growth inhibition, 48 h; in the data active = GI50 below about 0.43 µM; inactive = the rest
Respond only with the outcome that fits, drawn from active, inactive

1. NS(=O)(=O)c1ccc(NC(=O)c2cccc(NC3=C(Cl)C(=O)N(Cc4ccccc4)C3=O)c2)cc1 ... inactive
2. COc1ccc(C2=Nc3c/c(=C\c4c(O)[nH]c5cc(Cl)ccc45)ccc3=N2)cc1 ... inactive
3. CCCN1CCC=C(c2ccc(Nc3nc(Nc4ccccc4C(N)=O)c4cc[nH]c4n3)c(C)c2)C1 ... inactive
4. O=C(C=C=Nc1ccccc1)C(=O)N=C=Cc1ccccc1 ... inactive
5. COc1cccc(NC2=C(Cl)C(=O)N(Cc3ccc(Cl)cc3)C2=O)c1 ... inactive
6. [CH3][Sn]1([CH3])[O]CC(COc2cc(Cl)c(Cl)cc2Cl)[O]1 (stereo not drawn) ... inactive

Exam item: Check the results log: what was the call for COc1cc2c(cc1OCCCOc1ccc(-c3nc4ccc(N5CCN(C)CC5)cc4[nH]3)cc1)N=C[C@@H]1CCCN1C2=O ?
Marked response: active

Exam item: Check the results log: what was the call for COc1ccc2c(c1)/C(=N/OC(C)=O)c1c-2cnc2ccccc12 ?
Marked response: inactive

====

system: HL-60(TB) leukemia; test: NCI tumour cell line growth inhibition, 48 h; in the data active means GI50 below about 0.43 µM; inactive means the rest
Respond only with the outcome that fits, drawn from active, inactive

For orientation, consider the following solved cases.
1. O=C(C=C=Nc1ccccc1)C(=O)N=C=Cc1ccccc1 ... inactive
2. Cc1ccc(-c2n[nH]c(=O)c3noc(-c4ccc(C)cc4)c23)cc1 ... active
3. CCOC(=O)c1c(C)n(Cc2ccccc2)c2c1cc1oc(=O)c(=O)n3cnc2c13 ... inactive
4. Cc1c2ccncc2c(C)c2c1[nH]c1ccc(Cl)cc12 ... inactive
5. Cc1cc2nc3c4ccc(Br)cc4n(CCN(C)C)c3nc2cc1C ... inactive

Exam item: Check the results log: what was the call for Cc1cc(Nc2nc(-c3ccncc3)nc3ccccc23)n[nH]1 ?
Marked response: inactive

====

system: OVCAR-3 ovarian; assay: NCI tumour cell line growth inhibition, 48 h
TGI overview

1) CCCOC(=O)C1C2CCC(O2)C1C(=O)O (stereo unspecified) ... > 100 µM

Consider the additional compound presented here.
Exam item: Would you mind telling me what TGI value was observed for CCCCCCCCCCCCCCCCCC(=O)NCC(COP(=O)(O)O)OCC (stereo unspecified) ?
Marked response: > 100 µM

====

system: MDA-N; assay: NCI tumour cell line growth inhibition, 48 h
TGI overview

As a guide, the following entries are already answered.
1) CCOC(=O)c1cc(Br)c(-c2cc(C)co2)[nH]1 ... > 100 µM
2) CCCCCCCCCCCCOP(=O)(O)OP(=O)(O)OCC1OC(n2cc(C)c(=O)[nH]c2=O)CC1O (stereo unspecified) ... > 100 µM
3) Nc1ccn(C2OC(C(OC3OC(CO)C(O)C(N)C3O)C(O)C(O)C(O)C(O)CO)C(N)C(O)C2O)c(=O)n1 (stereo unspecified) ... > 100 µM
4) COC(=O)C1c2cc3c(c(O)c2C(O)CC1(C)O)C(=O)c1c(O)cc2c(c1C3=O)OC1OC2(C)C(O)C(N(C)C)C1O (stereo unspecified) ... 2.91 µM
5) CN(C)CCCNC(=O)c1cn2c(ccc3sc4ccccc4c(=O)c32)n1 ... 9.88 µM

Exam item: Would you mind telling me what TGI value was observed for Cc1ccccc1NC(=O)Cc1csc(N=Nc2c(O)[nH]c3ccccc23)n1 ?
Marked response: > 100 µM

====

TGI overview
test system: OVCAR-8 ovarian; test: NCI tumour cell line growth inhibition, 48 h

As a guide, the following entries are already answered.
1. COc1ccc2c(c1)/C(=N/OC(C)=O)c1c-2cnc2ccccc12 ... > 100 µM
2. C/C(=N\NS(=O)(=O)c1ccc([N+](=O)[O-])cc1)c1ccc[n+]([O-])n1 ... 6.61 µM

Exam item: Would you mind telling me what TGI value was observed for O=C(/C=C/c1ccc([N+](=O)[O-])cc1)c1cccc(Nc2nc(Nc3ccccc3)nc(Nc3ccccc3)n2)c1 ?
Marked response: > 100 µM

Exam item: Would you mind telling me what TGI value was observed for N#CC(C(=O)CCCC(=O)Nc1ccc(Cl)cc1Cl)c1ccc(Cl)cc1 (stereo not given) ?
Marked response: > 100 µM

Exam item: Would you mind telling me what TGI value was observed for Cc1ccc2c(c1C)C(=O)/C(=C/c1cccc(C)c1C(=O)O)C2 ?
Marked response: > 100 µM

Exam item: Would you mind telling me what TGI value was observed for Cc1ccc(S(=O)(=O)Nn2c(O)c(C#N)c(-c3ccc([N+](=O)[O-])cc3)c(C#N)c2=O)cc1 ?
Marked response: > 100 µM

Exam item: Would you mind telling me what TGI value was observed for O=C(N/N=C\c1ccc([N+](=O)[O-])s1)c1ccncc1 ?
Marked response: 49.2 µM

Exam item: Would you mind telling me what TGI value was observed for Cn1cc(C2=C(c3cn(CCCCC(=N)N)c4ccccc34)C(=O)NC2=O)c2ccccc21 ?
Marked response: > 25 µM

Exam item: Would you mind telling me what TGI value was observed for O=C(CCCCCCCCC(=O)N/N=C\c1cc(Cl)ccc1O)N/N=C\c1cc(Cl)ccc1O ?
Marked response: 28.9 µM

Exam item: Would you mind telling me what TGI value was observed for O=C(/C=C/C1C(=O)NC(=O)NC1=O)CC(=O)C(=O)Nc1cc(Cl)c(Cl)cc1Cl ?
Marked response: > 100 µM

Exam item: Would you mind telling me what TGI value was observed for COc1ccccc1NC(=S)N/N=C/c1cccc(C)n1 ?
Marked response: > 52.3 µM

Exam item: Would you mind telling me what TGI value was observed for COc1cc2c(cc1OCCCOc1ccc(-c3nc4ccc(N5CCN(C)CC5)cc4[nH]3)cc1)N=C[C@@H]1CCCN1C2=O ?
Marked response: < 0.01 µM

Exam item: Would you mind telling me what TGI value was observed for C[C@H](CCC(=O)NCC(=O)O)[C@H]1CC[C@H]2[C@@H]3[C@H](O)C[C@@H]4C[C@H](O)CC[C@]4(C)[C@H]3CC[C@]12C ?
Marked response: > 100 µM

Exam item: Would you mind telling me what TGI value was observed for COc1ccc(C2=Nc3c/c(=C\c4c(O)[nH]c5cc(Cl)ccc45)ccc3=N2)cc1 ?
Marked response: 22.8 µM

Exam item: Would you mind telling me what TGI value was observed for O=C(/C=C/c1cccc2ccccc12)Nc1ncc(Cc2ccccc2)s1 ?
Marked response: > 100 µM
